target: IKKε (Homo sapiens (Human)); assay: TR-FRET kinase assay, IKKε; conditions: full length recombinant IKKε 0.3 nM, 2x Km ATP, 1 μM peptide, 240 min at 25° C.; geometric mean of minimum four determinations
Sequence (Q14164 whole entry): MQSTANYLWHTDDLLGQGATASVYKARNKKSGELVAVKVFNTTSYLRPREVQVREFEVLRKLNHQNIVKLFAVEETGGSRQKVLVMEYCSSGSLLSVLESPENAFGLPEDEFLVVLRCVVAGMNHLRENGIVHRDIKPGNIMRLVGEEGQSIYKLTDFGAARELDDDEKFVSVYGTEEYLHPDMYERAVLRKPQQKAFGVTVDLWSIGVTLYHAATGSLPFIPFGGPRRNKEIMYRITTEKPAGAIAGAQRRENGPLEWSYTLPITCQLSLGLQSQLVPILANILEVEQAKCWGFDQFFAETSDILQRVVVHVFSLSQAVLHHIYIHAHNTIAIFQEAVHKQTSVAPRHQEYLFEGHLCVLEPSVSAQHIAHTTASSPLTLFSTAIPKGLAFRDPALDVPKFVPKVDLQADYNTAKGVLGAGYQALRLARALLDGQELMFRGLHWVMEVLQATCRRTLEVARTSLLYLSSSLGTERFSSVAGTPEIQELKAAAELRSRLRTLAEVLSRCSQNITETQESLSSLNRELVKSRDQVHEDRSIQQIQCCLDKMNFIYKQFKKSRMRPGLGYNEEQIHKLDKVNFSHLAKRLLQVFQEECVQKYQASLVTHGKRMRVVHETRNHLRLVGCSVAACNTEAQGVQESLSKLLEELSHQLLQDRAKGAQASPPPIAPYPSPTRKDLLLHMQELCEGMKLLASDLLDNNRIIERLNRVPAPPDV
property: pIC50
A value of pIC50 is the negative decimal logarithm of a concentration given in moles per litre.

N#Cc1cc(-c2ncnc3[nH]c(-c4ccc(OCCN5CCCC5)cc4)cc23)ccc1OCC1CC1 has a reported pIC50 of 8.41

So for N#Cc1cc(-c2ncnc3[nH]c(-c4ccc(N5CCN(CC(F)F)CC5)cc4)cc23)ccc1OC1CCNCC1 , the logged pIC50 turned out to be 7.23

---
Lab note: measured pIC50 of N#Cc1cc(-c2ccnc3[nH]c(-c4cc5ccccc5[nH]4)cc23)ccc1OC1CCOCC1 was 7.11
